- system_name: human CXCR3 (Homo sapiens, UniProt P49682)
- Construct: expressed in transfected cells; host or cells: CHO cells (membrane preparation)
- Sequence (P49682 whole entry): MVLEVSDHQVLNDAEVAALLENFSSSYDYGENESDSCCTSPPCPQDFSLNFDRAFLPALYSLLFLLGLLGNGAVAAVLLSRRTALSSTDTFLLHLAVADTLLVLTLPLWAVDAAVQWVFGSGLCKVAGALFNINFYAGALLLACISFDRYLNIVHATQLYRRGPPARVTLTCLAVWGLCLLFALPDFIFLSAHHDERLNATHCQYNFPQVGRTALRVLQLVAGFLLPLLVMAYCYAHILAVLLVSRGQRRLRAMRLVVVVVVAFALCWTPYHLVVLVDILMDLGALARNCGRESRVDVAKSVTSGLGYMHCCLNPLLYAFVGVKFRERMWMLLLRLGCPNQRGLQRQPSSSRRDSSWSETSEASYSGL
- test_protocol: [35S]GTPγS exchange assay, CXCR3 receptor inhibition (hI-TAC-induced GTPγS-binding)
- Assay type: biochemical
- cond: -log IC50 (molar) inhibiting 50% of specific I-TAC-induced GTPγS-binding; membranes of human CXCR3-transfected CHO cells; read-out: pIC50 (converted)
Catalogue of IC50 values
Quick note: give the figure in nM, leave out the unit.

As a guide, the following entries are already answered.
- O=C1CCC(c2cccc(Cl)c2)(C2CCN(Cc3ccc(C(F)(F)F)cc3)CC2)C(=O)N1 (stereo not shown): 3980
- O=C1CCC(c2ccccc2)(C2CCN(Cc3ccc(Cl)cc3Cl)CC2)CN1 (stereo not shown): 631
- O=C1CCC(c2ccc(F)cc2)(C2CCN(Cc3ccc4ccccc4c3)CC2)C(=O)N1 (stereo not shown): 1000

-- ask Give human CXCR3 (Homo sapiens, UniProt P49682) IC50 for the following compound: CC1CC(=O)NC(=O)C1(c1ccccc1)C1CCN(Cc2ccc(Br)cc2)CC1 (stereo not shown)
-- reply 501
